# ASSAY METHOD TEXT: Toxicity liver stage against HepG2, at 10uM
# Assay type: cell-based
# Design: test concentration 10 uM, cell line HepG2-A16-CD81EGFP
# CONDITIONS: human, HepG2-A16-CD81EGFP cells; read-out: INHIBITION
Reported cytotoxicity at 10 µM is given for each of the following compounds.
Record the value in %, omitting the unit from your answer.

>>> df
                                   compound  unit_name  measured_number
0        O=C(NCCNc1ncccn1)N1CCN(c2nccs2)CC1          %            -13.8
1   COCC(=O)NCc1cc(=O)n2c(n1)CN(CC1CC1)CCC2          %            -88.5
2  CCCn1cc(C(=O)NC(CC(=O)O)c2ccco2)c(C)n1 (centres undefined)          %            -61.4
3       CC(C)(C)CC(=O)N1C[C@@H]2C[C@@H]1CN2          %             6.59
4             CCCC(=O)N(C)Cc1cccc(OC(C)C)c1          %            -4.24
5        OCCn1nccc1C1CCN(CCOc2cccc(F)c2)CC1          %            -10.8
6  CC(C)NC(=O)[C@H]1C[C@@H]2[C@@H](C1)OCCN2CC1CC1          %            -6.13
7   O=C(O)CCCC(=O)Nc1cnn(COc2ccc(F)cc2Cl)c1          %             8.69

Endpoint output: cytotoxicity at 10 µM of CC(C)(C)C(=O)NCc1cnn2ccccc12 . Value?
-10.6

###

# ASSAY METHOD TEXT: Toxicity liver stage against HepG2, at 10uM
# Format: cell-based
# Design: test concentration 10 uM, cell line HepG2-A16-CD81EGFP
# CONDITIONS: human, HepG2-A16-CD81EGFP cells; read-out: INHIBITION
In this section we review reported cytotoxicity at 10 µM values for a set of compounds.
The reply should contain only the number, in %.

May I ask what cytotoxicity at 10 µM has been recorded for Cc1cccc(CN2CCc3c(COCC(=O)N(C)C)nn(C)c3C2)n1 ?
-120

Param item = CN1CCC(N(Cc2ccccc2)C(=O)c2ccn3ccnc3c2)CC1 ; retrieve measured cytotoxicity at 10 µM.
5.63

Could you share which cytotoxicity at 10 µM value was measured for O=C1CO[C@@H]2CN(CC3CCOCC3)C[C@H]2N1CC1CC1 ?
1.57

May I ask what cytotoxicity at 10 µM has been recorded for CCN(CC)C(=O)CNC(=O)c1cnc(-c2ccccc2)nc1 ?
12.7

For CN(C)c1ccc(NC(=O)c2cccc(N(C)C)c2)nc1 , what is its reported cytotoxicity at 10 µM?
23.3

Given CCS(=O)(=O)CC(=O)NC(c1ccccc1)C1CCCC1 (stereo not drawn) , state its recorded cytotoxicity at 10 µM.
-137

Given COC(=O)c1cccc(CNC(=O)c2cc(C(C)C)n(C)n2)c1 , state its recorded cytotoxicity at 10 µM.
-3.26

Report cytotoxicity at 10 µM for COc1cc(C(=O)N2CCCC(c3cc(C)[nH]n3)C2)cc(OC)c1C (stereo not drawn) please.
-10.5
